Biological target: GST-tagged truncated LRRK2 (Homo sapiens)
Construct: GST-tagged truncated LRRK2 from Invitrogen (Cat # PV4874); GST
Sequence (Q5S007 970-2527 limits assumed): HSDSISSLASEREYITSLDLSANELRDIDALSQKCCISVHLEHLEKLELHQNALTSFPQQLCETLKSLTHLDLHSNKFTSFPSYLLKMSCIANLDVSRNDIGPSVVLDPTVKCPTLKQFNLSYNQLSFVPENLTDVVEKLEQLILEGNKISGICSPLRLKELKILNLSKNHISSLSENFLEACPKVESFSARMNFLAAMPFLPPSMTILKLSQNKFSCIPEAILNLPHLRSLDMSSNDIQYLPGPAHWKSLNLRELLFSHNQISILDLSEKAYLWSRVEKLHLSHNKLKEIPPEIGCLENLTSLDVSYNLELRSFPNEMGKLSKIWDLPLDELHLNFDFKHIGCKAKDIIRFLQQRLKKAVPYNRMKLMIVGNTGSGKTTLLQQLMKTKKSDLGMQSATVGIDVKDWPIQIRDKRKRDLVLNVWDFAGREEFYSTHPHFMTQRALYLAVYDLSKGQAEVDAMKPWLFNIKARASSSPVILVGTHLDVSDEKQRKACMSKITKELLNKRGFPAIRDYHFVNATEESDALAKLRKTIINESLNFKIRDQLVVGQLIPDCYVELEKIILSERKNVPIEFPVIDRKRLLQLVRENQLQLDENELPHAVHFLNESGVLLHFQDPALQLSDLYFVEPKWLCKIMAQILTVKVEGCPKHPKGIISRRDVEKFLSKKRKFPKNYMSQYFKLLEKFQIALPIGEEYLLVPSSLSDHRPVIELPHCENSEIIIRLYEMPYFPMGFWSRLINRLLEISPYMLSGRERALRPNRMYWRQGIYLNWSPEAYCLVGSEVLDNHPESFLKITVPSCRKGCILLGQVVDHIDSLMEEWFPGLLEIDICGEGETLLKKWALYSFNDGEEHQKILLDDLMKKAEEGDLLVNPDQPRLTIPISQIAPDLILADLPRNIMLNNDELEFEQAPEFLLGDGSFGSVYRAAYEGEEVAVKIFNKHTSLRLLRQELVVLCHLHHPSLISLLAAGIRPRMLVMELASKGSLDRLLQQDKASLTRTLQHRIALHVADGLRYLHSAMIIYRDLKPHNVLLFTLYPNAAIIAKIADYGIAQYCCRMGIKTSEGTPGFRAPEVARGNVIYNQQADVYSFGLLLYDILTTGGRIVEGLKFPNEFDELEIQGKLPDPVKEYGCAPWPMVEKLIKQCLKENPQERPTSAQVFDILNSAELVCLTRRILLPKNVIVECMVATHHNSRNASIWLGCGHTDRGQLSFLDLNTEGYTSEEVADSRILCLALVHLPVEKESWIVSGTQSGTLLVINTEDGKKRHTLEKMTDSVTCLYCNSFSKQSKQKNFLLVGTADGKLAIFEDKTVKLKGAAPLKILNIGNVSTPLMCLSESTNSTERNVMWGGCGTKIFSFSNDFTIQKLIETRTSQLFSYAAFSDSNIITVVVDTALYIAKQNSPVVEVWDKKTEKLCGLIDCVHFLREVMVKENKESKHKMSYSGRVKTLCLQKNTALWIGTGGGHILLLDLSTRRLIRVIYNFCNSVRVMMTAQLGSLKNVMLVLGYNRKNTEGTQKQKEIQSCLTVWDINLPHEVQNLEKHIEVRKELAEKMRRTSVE
Experiment: LRRK2 kinase assay (Lantha Screen)
Conditions: 1 mM ATP (head); a = geometric mean of >=4 determinations, b = single determination; read-out: LRRK2 LANTHA EC50 at 1 mM ATP; Geometric mean of 2-3 determinations unless otherwise indicated
pEC50: −log10 of the molar value.
Readout Label: pEC50

Sample answers from the record:
In [3]: df
Out[3]:
                                   compound  readout_label  value_observed
0  Cn1cc(-c2c[nH]c3nccc(-c4ccc5scnc5c4)c23)cn1          pEC50            6.77
1  Cn1cc(-c2c[nH]c3nncc(N4CCOCC4)c23)cc1C#N          pEC50            7.85
2  Cc1[nH]c2nccc(N3CCOCC3)c2c1-c1cccc(C#N)c1          pEC50            7.66
3  N#Cc1cccc(-c2c[nH]c3nncc(N4CCOCC4)c23)c1F          pEC50            7.36
4  Cn1cc(-c2c(Cl)[nH]c3nccc(N4CCOCC4)c23)cc1C#N          pEC50            8.89
5  Cc1[nH]c2nccc(N3CCOCC3)c2c1-c1cc(F)cc(C#N)c1          pEC50            6.76
6  Cc1[nH]c2nccc(N3CCOCC3)c2c1-c1cccc(C#N)n1          pEC50            7.50
7  N#Cc1cccc(-c2c[nH]c3ncc(CO)c(N4CCOCC4)c23)c1          pEC50            7.10
8     Cn1cc(-c2c[nH]c3nccc(-c4ccoc4)c23)cn1          pEC50            6.84
9  Cc1[nH]c2nccc(N3CCOCC3)c2c1-c1cc(C#N)n(C)c1          pEC50            8.26

[a] O=c1cc(-c2c[nH]c3nccc(N4CCOCC4)c23)cc[nH]1
[b] Cn1cc(-c2ccnc3[nH]cc(-c4cccc(C#N)c4)c23)cn1
[c] Clc1cccc(-c2c[nH]c3nccc(N4CCOCC4)c23)c1
[d] N#Cc1cccc(-c2c[nH]c3nccc(N4CC[C@H](F)C4)c23)c1
[e] Cc1cc(N2CCOCC2)c2c(-c3cccc(C#N)c3)c[nH]c2n1
Ask | Rank order required: pEC50, descending. Labels, ranked as asked.
Reply | a, d, c, b, e
(a: 7.95, d: 7.62, c: 7.27, b: 7.00, e: 6.68)

[P] Cn1cc(-c2c[nH]c3nccc(N4CCCC(O)C4)c23)cn1 (centres unmarked)
[Q] Cn1cc(-c2c[nH]c3ncc(C#N)c(N4CCOCC4)c23)cn1
Ask | Between the entries labelled P and Q , which has a larger pEC50 value on record? Answer by quoting the chosen item's label.
Reply | P
(P: 7.04, Q: 6.84)
